Please go through the items and note down their T/C.
System: L1210 leukemia ip in BDF1 mice, survival T/C
Assay overview: NCI In Vivo Anticancer Drug Screen. Data for tumor model L1210 Leukemia (intraperitoneal) in B6D2F1 (BDF1) mice
Cond: endpoint: mean survival time; dose: 100.0 mg/kg/injection; schedule: Q01DX001 (ip); vehicle: saline; higher = longer survival
Inconclusive results and toxic doses are left out.

Lab note: measured T/C of CN(C)c1nc(N)nc2c1nc(Cl)n2C1OC(CO)C(O)C1O (stereo unspecified) was 97 % of control

Lab note: measured T/C of CCOC(=O)C(C(=O)CC(C)C)C(C)C (stereo unspecified) was 103 % of control

Lab note: measured T/C of COc1ccc(/C=C2\N=C(c3ccccc3)OC2=O)c(Cl)c1OC was 97 % of control

Lab note: measured T/C of O=C(N/N=C/c1ccc(Cl)cc1Cl)c1cccc2ccccc12 was 92 % of control

Lab note: measured T/C of CC(C)(SCC(N)C(=O)O)C(N)C(=O)O (stereo unspecified) was 95 % of control

Lab note: measured T/C of Cc1cccc(NC(=O)OCCN(CCOC(=O)Nc2cccc(C)c2)c2cccc(C)c2)c1 was 88 % of control

* * *

Test system: L1210 leukemia ip in BDF1 mice, survival T/C
Assay overview: NCI In Vivo Anticancer Drug Screen. Data for tumor model L1210 Leukemia (intraperitoneal) in B6D2F1 (BDF1) mice
Cond: endpoint: mean survival time; dose: 100.0 mg/kg/injection; schedule: Q01DX001 (ip); vehicle: saline; higher = longer survival
Inconclusive results and toxic doses are left out.
Please go through the items and note down their T/C.

L1210 leukemia ip in BDF1 mice, survival T/C T/C of O=C(O)CCc1ccsc1 is 94 % of control

L1210 leukemia ip in BDF1 mice, survival T/C T/C of COc1ccc(C(C)=O)c(OC)c1 is 98 % of control

L1210 leukemia ip in BDF1 mice, survival T/C T/C of Cc1ccnc(NS(=O)(=O)c2ccc(N=Nc3ccc(N)nc3N)cc2)n1 is 100 % of control

L1210 leukemia ip in BDF1 mice, survival T/C T/C of Clc1cc(Cl)c(OCC#CI)cc1Cl is 98 % of control

L1210 leukemia ip in BDF1 mice, survival T/C T/C of COc1ccc(O)c(CCCO)c1 is 95 % of control

L1210 leukemia ip in BDF1 mice, survival T/C T/C of CC(=O)Nc1ccc2c(=O)cc[nH]c2n1 is 93 % of control

L1210 leukemia ip in BDF1 mice, survival T/C T/C of Cc1ccc(P(=O)(O)O)c([N+](=O)[O-])c1 is 94 % of control

* * *

Tested on: L1210 leukemia ip in BDF1 mice, survival T/C
Assay overview: NCI In Vivo Anticancer Drug Screen. Data for tumor model L1210 Leukemia (intraperitoneal) in B6D2F1 (BDF1) mice
Cond: endpoint: mean survival time; dose: 100.0 mg/kg/injection; schedule: Q04DX003 (ip); vehicle: Klucel (hydroxypropylcellulose) (HPC); higher = longer survival
Toxic doses and inconclusive results are not listed.
Please go through the items and note down their T/C.

Lab note: measured T/C of OC(c1cc(Nc2ccc(Cl)cc2)nc2ccccc12)C1CCCCN1 (stereo not given) was 95 % of control

Lab note: measured T/C of CC(C)(C)c1ccc(S(=O)(=O)c2ccc(C(C)(C)C)cc2)cc1 was 94 % of control

Lab note: measured T/C of CNC(=S)N(N)c1ccccc1 was 93 % of control

Lab note: measured T/C of O=[As](O)(O)Cc1cccc(F)c1 was 87 % of control

Lab note: measured T/C of ClCc1ccc(CCl)c(Cl)c1 was 94 % of control

Lab note: measured T/C of Cc1ccc(-c2nc(N)[nH]c(=O)c2CCCN(c2ccccc2)S(=O)(=O)c2ccc(C)cc2)cc1 was 102 % of control

Lab note: measured T/C of CCOC(=O)C(C)C1CCCc2c(C)ccc(C)c21 (stereo not given) was 98 % of control

Lab note: measured T/C of CS(=O)(=O)OCCN(CCOS(C)(=O)=O)c1ccc(C=Nc2cccc(Cl)c2)c(Cl)c1 was 106 % of control

Lab note: measured T/C of CCOC(=O)CCc1c(C(=O)O)[nH]c(C(=O)OCC)c1C was 102 % of control

Lab note: measured T/C of CCOC(=O)C(CCNC(=O)c1ccccc1)C(=O)OCC was 93 % of control

Lab note: measured T/C of COC(=O)c1ccccc1NC(=O)NCCBr was 103 % of control

Lab note: measured T/C of O=[N+]([O-])c1cc([N+](=O)[O-])c(Cl)cc1Cl was 96 % of control

Lab note: measured T/C of Cc1ccc(N=C=Nc2ccc(C)cc2)cc1 was 90 % of control

Lab note: measured T/C of CN(/N=N/c1nc[nH]c1C(N)=O)C(C)(C)C was 102 % of control

Lab note: measured T/C of Cc1cc(OC(=O)/C=C/C(=O)Oc2cc(C)c(Cl)c(C)c2)cc(C)c1Cl was 105 % of control

Lab note: measured T/C of CC(C)C1C(C(=O)O)NC(=O)C1C(=O)O (stereo not given) was 96 % of control

Lab note: measured T/C of CC(C)(C)OC(=O)C(C1NC2C(=O)OCC2(CO)S1)N1C(=O)c2ccccc2C1=O (stereo not given) was 95 % of control

Lab note: measured T/C of CC(=O)OC1OC(CS[As](C)C)C(OC(C)=O)C(OC(C)=O)C1OC(C)=O (stereo not given) was 94 % of control

Lab note: measured T/C of Clc1ccc2c(c1)/C(=C/c1cccnc1)c1cc(Cl)cc(Cl)c1-2 was 88 % of control

Lab note: measured T/C of NC(=O)c1ccc([N+](=O)[O-])s1 was 100 % of control

Lab note: measured T/C of COC(=O)N1C2C3C(C)=C(C)C2(C)C3(C)S1(=O)=O (stereo not given) was 101 % of control

Lab note: measured T/C of COc1ccc(Cl)cc1NC(=O)NC(Cc1ccccc1)c1ccccc1 (stereo not given) was 101 % of control

Lab note: measured T/C of CCC[CH2][Ge]([Cl])([Cl])[CH2]CCC was 106 % of control

Lab note: measured T/C of CC(=O)CC(=O)Nc1nc2ccccc2s1 was 92 % of control

Lab note: measured T/C of Cc1ccc(NN)cc1Cl was 105 % of control
